# System: Escherichia coli DC-2
quantity: MIC

Consider the worked cases shown below.
The value of MIC recorded for CC[C@H]1OC(=O)[C@H](C)C(=O)[C@H](C)[C@@H](O[C@@H]2O[C@H](C)C[C@H](N(C)CCF)[C@H]2O)[C@](C)(OCC=Cc2cnc3ccccc3c2)C[C@@H](C)C(=O)[C@H](C)[C@H]2NC(=O)O[C@@]21C [Example 7] when tested on Escherichia coli DC-2 reads > 100 µg/mL

The value of MIC recorded for CC[C@H]1OC(=O)[C@H](C)C(=O)[C@H](C)[C@@H](O[C@@H]2O[C@H](C)C[C@H](N(C)C3CC3)[C@H]2O)[C@](C)(OCC=Cc2cnc3ccccc3c2)C[C@@H](C)C(=O)[C@H](C)[C@H]2NC(=O)O[C@@]21C [Example 13] when tested on Escherichia coli DC-2 reads > 100 µg/mL

Shift focus to the following entry.
The value of MIC recorded for CC[C@H]1OC(=O)[C@H](C)C(=O)[C@H](C)[C@@H](O[C@@H]2O[C@H](C)C[C@H](N(C)CC=Cc3ccccc3)[C@H]2O)[C@](C)(OCC=Cc2cnc3ccccc3c2)C[C@@H](C)C(=O)[C@H](C)[C@H]2NC(=O)O[C@@]21C [Example 17] when tested on Escherichia coli DC-2 reads > 100 µg/mL

###

# Test system: Staphylococcus epidermidis 3519
quantity: MIC (µg/mL)
Report as a plain number; the unit µg/mL is understood.

Consider the worked cases shown below.
The value of MIC recorded for `CC[C@H]1OC(=O)[C@H](C)C(=O)[C@H](C)[C@@H](O[C@@H]2O[C@H](C)C[C@H](N(C)Cc3ccccc3)[C@H]2O)[C@](C)(OCC=Cc2cnc3ccccc3c2)C[C@@H](C)C(=O)[C@H](C)[C@H]2NC(=O)O[C@@]21C` when tested on Staphylococcus epidermidis 3519 reads 0.2

The value of MIC recorded for CC[C@H]1OC(=O)[C@H](C)[C@@H](O[C@H]2C[C@@](C)(OC)[C@@H](O)[C@H](C)O2)[C@H](C)[C@@H](O[C@@H]2O[C@H](C)C[C@H](N(C)C)[C@H]2O)[C@](C)(O)C[C@@H](C)C(=O)[C@H](C)[C@@H](O)[C@]1(C)O [Ery. A, Erythromycin A, reference compound] when tested on Staphylococcus epidermidis 3519 reads 0.39

The value of MIC recorded for `C=C(CN(C)[C@H]1C[C@@H](C)O[C@@H](O[C@@H]2[C@@H](C)C(=O)[C@@H](C)C(=O)O[C@H](CC)[C@@]3(C)OC(=O)N[C@@H]3[C@@H](C)C(=O)[C@H](C)C[C@@]2(C)OCC=Cc2cnc3ccccc3c2)[C@@H]1O)C(=O)OC` when tested on Staphylococcus epidermidis 3519 reads 0.39

The value of MIC recorded for `CC[C@H]1OC(=O)[C@H](C)C(=O)[C@H](C)[C@@H](O[C@@H]2O[C@H](C)C[C@H](NC)[C@H]2OC(C)=O)[C@](C)(OCC=Cc2cnc3ccccc3c2)C[C@@H](C)C(=O)[C@H](C)[C@H]2NC(=O)O[C@@]21C` when tested on Staphylococcus epidermidis 3519 reads 0.2

The value of MIC recorded for `CC[C@H]1OC(=O)[C@H](C)C(=O)[C@H](C)[C@@H](O[C@@H]2O[C@H](C)C[C@H](N(C)CC3CC3)[C@H]2O)[C@](C)(OCC=Cc2cnc3ccccc3c2)C[C@@H](C)C(=O)[C@H](C)[C@H]2NC(=O)O[C@@]21C` when tested on Staphylococcus epidermidis 3519 reads 0.39

Continuing:
The value of MIC recorded for `CCCN(C)[C@H]1C[C@@H](C)O[C@@H](O[C@@H]2[C@@H](C)C(=O)[C@@H](C)C(=O)O[C@H](CC)[C@@]3(C)OC(=O)N[C@@H]3[C@@H](C)C(=O)[C@H](C)C[C@@]2(C)OCC=Cc2cnc3ccccc3c2)[C@@H]1O` when tested on Staphylococcus epidermidis 3519 reads 0.39

The value of MIC recorded for `CC[C@H]1OC(=O)[C@H](C)C(=O)[C@H](C)[C@@H](O[C@@H]2O[C@H](C)C[C@H](N(C)Cc3cccc(O)c3)[C@H]2O)[C@](C)(OCC=Cc2cnc3ccccc3c2)C[C@@H](C)C(=O)[C@H](C)[C@H]2NC(=O)O[C@@]21C` when tested on Staphylococcus epidermidis 3519 reads 0.39

The value of MIC recorded for `C=C(C)CN(C)[C@H]1C[C@@H](C)O[C@@H](O[C@@H]2[C@@H](C)C(=O)[C@@H](C)C(=O)O[C@H](CC)[C@@]3(C)OC(=O)N[C@@H]3[C@@H](C)C(=O)[C@H](C)C[C@@]2(C)OCC=Cc2cnc3ccccc3c2)[C@@H]1O` when tested on Staphylococcus epidermidis 3519 reads 0.2

###

# MIC measurements, system: Micrococcus luteus ATCC 9341
Report as a plain number; the unit µg/mL is understood.

Consider the worked cases shown below.
get_value(item= C#CCN(C)[C@H]1C[C@@H](C)O[C@@H](O[C@@H]2[C@@H](C)C(=O)[C@@H](C)C(=O)O[C@H](CC)[C@@]3(C)OC(=O)N[C@@H]3[C@@H](C)C(=O)[C@H](C)C[C@@]2(C)OCC=Cc2cnc3ccccc3c2)[C@@H]1O [Example 10] , readout=MIC) returns 0.1

get_value(item= CC[C@H]1OC(=O)[C@H](C)C(=O)[C@H](C)[C@@H](O[C@@H]2O[C@H](C)C[C@H](NC)[C@H]2OC(C)=O)[C@](C)(OCC=Cc2cnc3ccccc3c2)C[C@@H](C)C(=O)[C@H](C)[C@H]2NC(=O)O[C@@]21C [Example 2] , readout=MIC) returns 0.02

get_value(item= CC[C@H]1OC(=O)[C@H](C)[C@@H](O[C@H]2C[C@@](C)(OC)[C@@H](O)[C@H](C)O2)[C@H](C)[C@@H](O[C@@H]2O[C@H](C)C[C@H](N(C)C)[C@H]2O)[C@](C)(O)C[C@@H](C)C(=O)[C@H](C)[C@@H](O)[C@]1(C)O [Ery. A, Erythromycin A, reference compound] , readout=MIC) returns 0.05

Shift focus to the following entry.
get_value(item= C=C(CN(C)[C@H]1C[C@@H](C)O[C@@H](O[C@@H]2[C@@H](C)C(=O)[C@@H](C)C(=O)O[C@H](CC)[C@@]3(C)OC(=O)N[C@@H]3[C@@H](C)C(=O)[C@H](C)C[C@@]2(C)OCC=Cc2cnc3ccccc3c2)[C@@H]1O)C(=O)OC [Example 18] , readout=MIC) returns 0.02

###

Recorded MIC values for a group of compounds are listed next.
# Test system: Streptococcus Pheumoniae GYR 1171
Report as a plain number; the unit µg/mL is understood.

The value of MIC recorded for CC[C@H]1OC(=O)[C@H](C)[C@@H](O[C@H]2C[C@@](C)(OC)[C@@H](O)[C@H](C)O2)[C@H](C)[C@@H](O[C@@H]2O[C@H](C)C[C@H](N(C)C)[C@H]2O)[C@](C)(O)C[C@@H](C)C(=O)[C@H](C)[C@@H](O)[C@]1(C)O [Ery. A, Erythromycin A, reference compound] when tested on Streptococcus Pheumoniae GYR 1171 reads 0.06

The value of MIC recorded for `CC[C@H]1OC(=O)[C@H](C)C(=O)[C@H](C)[C@@H](O[C@@H]2O[C@H](C)C[C@H](NC)[C@H]2OC(C)=O)[C@](C)(OCC=Cc2cnc3ccccc3c2)C[C@@H](C)C(=O)[C@H](C)[C@H]2NC(=O)O[C@@]21C` when tested on Streptococcus Pheumoniae GYR 1171 reads 0.03

The value of MIC recorded for `CC[C@H]1OC(=O)[C@H](C)C(=O)[C@H](C)[C@@H](O[C@@H]2O[C@H](C)C[C@H](N(C)Cc3cccnc3)[C@H]2O)[C@](C)(OCC=Cc2cnc3ccccc3c2)C[C@@H](C)C(=O)[C@H](C)[C@H]2NC(=O)O[C@@]21C` when tested on Streptococcus Pheumoniae GYR 1171 reads 0.03

The value of MIC recorded for `CC[C@H]1OC(=O)[C@H](C)C(=O)[C@H](C)[C@@H](O[C@@H]2O[C@H](C)C[C@H](N(C)CC#N)[C@H]2O)[C@](C)(OCC=Cc2cnc3ccccc3c2)C[C@@H](C)C(=O)[C@H](C)[C@H]2NC(=O)O[C@@]21C` when tested on Streptococcus Pheumoniae GYR 1171 reads 0.03

The value of MIC recorded for `CC[C@H]1OC(=O)[C@H](C)C(=O)[C@H](C)[C@@H](O[C@@H]2O[C@H](C)C[C@H](N(C)CCF)[C@H]2O)[C@](C)(OCC=Cc2cnc3ccccc3c2)C[C@@H](C)C(=O)[C@H](C)[C@H]2NC(=O)O[C@@]21C` when tested on Streptococcus Pheumoniae GYR 1171 reads 0.03

The value of MIC recorded for `CC[C@H]1OC(=O)[C@H](C)C(=O)[C@H](C)[C@@H](O[C@@H]2O[C@H](C)C[C@H](NC)[C@H]2O)[C@](C)(OCC=Cc2cnc3ccccc3c2)C[C@@H](C)C(=O)[C@H](C)[C@H]2NC(=O)O[C@@]21C` when tested on Streptococcus Pheumoniae GYR 1171 reads 0.03

Continuing:
The value of MIC recorded for `CC[C@H]1OC(=O)[C@H](C)C(=O)[C@H](C)[C@@H](O[C@@H]2O[C@H](C)C[C@H](N(C)Cc3cccc(O)c3)[C@H]2O)[C@](C)(OCC=Cc2cnc3ccccc3c2)C[C@@H](C)C(=O)[C@H](C)[C@H]2NC(=O)O[C@@]21C` when tested on Streptococcus Pheumoniae GYR 1171 reads 0.03

The value of MIC recorded for `CC[C@H]1OC(=O)[C@H](C)C(=O)[C@H](C)[C@@H](O[C@@H]2O[C@H](C)C[C@H](N(C)Cc3ccccc3)[C@H]2O)[C@](C)(OCC=Cc2cnc3ccccc3c2)C[C@@H](C)C(=O)[C@H](C)[C@H]2NC(=O)O[C@@]21C` when tested on Streptococcus Pheumoniae GYR 1171 reads 0.03

The value of MIC recorded for `CCCN(C)[C@H]1C[C@@H](C)O[C@@H](O[C@@H]2[C@@H](C)C(=O)[C@@H](C)C(=O)O[C@H](CC)[C@@]3(C)OC(=O)N[C@@H]3[C@@H](C)C(=O)[C@H](C)C[C@@]2(C)OCC=Cc2cnc3ccccc3c2)[C@@H]1O` when tested on Streptococcus Pheumoniae GYR 1171 reads 0.03

The value of MIC recorded for CC[C@H]1OC(=O)[C@H](C)C(=O)[C@H](C)[C@@H](O[C@@H]2O[C@H](C)C[C@H](N(C)C3CC3)[C@H]2O)[C@](C)(OCC=Cc2cnc3ccccc3c2)C[C@@H](C)C(=O)[C@H](C)[C@H]2NC(=O)O[C@@]21C [Example 20] when tested on Streptococcus Pheumoniae GYR 1171 reads 0.03

The value of MIC recorded for `CC[C@H]1OC(=O)[C@H](C)C(=O)[C@H](C)[C@@H](O[C@@H]2O[C@H](C)C[C@H](N(C)C(C)=O)[C@H]2O)[C@](C)(OCC=Cc2cnc3ccccc3c2)C[C@@H](C)C(=O)[C@H](C)[C@H]2NC(=O)O[C@@]21C` when tested on Streptococcus Pheumoniae GYR 1171 reads 0.125

The value of MIC recorded for CC[C@H]1OC(=O)[C@H](C)C(=O)[C@H](C)[C@@H](O[C@@H]2O[C@H](C)C[C@H](N(C)C3CC3)[C@H]2O)[C@](C)(OCC=Cc2cnc3ccccc3c2)C[C@@H](C)C(=O)[C@H](C)[C@H]2NC(=O)O[C@@]21C [Example 13] when tested on Streptococcus Pheumoniae GYR 1171 reads 0.03

The value of MIC recorded for `C#CCN(C)[C@H]1C[C@@H](C)O[C@@H](O[C@@H]2[C@@H](C)C(=O)[C@@H](C)C(=O)O[C@H](CC)[C@@]3(C)OC(=O)N[C@@H]3[C@@H](C)C(=O)[C@H](C)C[C@@]2(C)OCC=Cc2cnc3ccccc3c2)[C@@H]1O` when tested on Streptococcus Pheumoniae GYR 1171 reads 0.03
